- Tested on: Penicillium digitatum
- assayMethodText: Green mold on orange, contact assay (Example 25)
- Type: in vivo
- conditionNotes: Contact (dip); rate not given; day 3 at 21 C after 5 days at 1 C
Provide the recorded Orange Sporulation (mm) for the entries that follow.
Provide only the numeric value, understood in mm.

Input c1ccc2[nH]c(-c3cscn3)nc2c1 [Thiabendazole] , output reported Orange Sporulation (mm).
0.0

Input C=CCOC(Cn1ccnc1)c1ccc(Cl)cc1Cl (stereo not drawn) [Imazalil] , output reported Orange Sporulation (mm).
0.0

Input N#Cc1c[nH]cc1-c1cccc2c1OC(F)(F)O2 [Fludioxonil] , output reported Orange Sporulation (mm).
8.3

Input Cc1cc(C)nc(Nc2ccccc2)n1 [Pyrimethanil] , output reported Orange Sporulation (mm).
0.0
